Parameter: inhibition. Scope: all listed entries.
# EXPERIMENT: blockers of polyQ-driven CASP3 activation – cell-based (AID 1583)
# COND: polyglutamine-induced caspase-3 activation, cell assay; stronger effect = higher value; concentration not given here

{"COMPOUND": "CC(=O)NS(=O)(=O)c1ccc(N)cc1", "MEASUREMENT UNIT": "%", "inhibition": 11.3}
{"COMPOUND": "CS(=O)(=O)Nc1ccc([N+](=O)[O-])cc1Oc1ccccc1", "MEASUREMENT UNIT": "%", "inhibition": 6.83}
{"COMPOUND": "CC(C)(Sc1cc(C(C)(C)C)c(O)c(C(C)(C)C)c1)Sc1cc(C(C)(C)C)c(O)c(C(C)(C)C)c1", "MEASUREMENT UNIT": "%", "inhibition": -32.2}
{"COMPOUND": "O=C(O)P(=O)(O)O", "MEASUREMENT UNIT": "%", "inhibition": -16.3}
{"COMPOUND": "Cc1cc(NC(=O)C2=C(O)c3ccccc3S(=O)(=O)N2C)no1", "MEASUREMENT UNIT": "%", "inhibition": 49.9}
{"COMPOUND": "NC(=O)NC(=O)Cc1ccccc1", "MEASUREMENT UNIT": "%", "inhibition": 24.8}
{"COMPOUND": "C[N+](C)(C)CCOC(N)=O", "MEASUREMENT UNIT": "%", "inhibition": 19.3}
{"COMPOUND": "CN1CCN(CC(=O)N2c3ccccc3C(=O)Nc3cccnc32)CC1", "MEASUREMENT UNIT": "%", "inhibition": 9.26}
{"COMPOUND": "CCN(CC)CCNc1ccc(CO)c2sc3ccccc3c(=O)c12", "MEASUREMENT UNIT": "%", "inhibition": 2.1}
{"COMPOUND": "CN1CCN2c3ccccc3Cc3ccccc3C2C1 (stereo not given)", "MEASUREMENT UNIT": "%", "inhibition": -9.95}
{"COMPOUND": "Cc1c(NC(C)C)c(=O)n(-c2ccccc2)n1C", "MEASUREMENT UNIT": "%", "inhibition": 6.61}
{"COMPOUND": "COc1ccc2cc3[n+](cc2c1OC)CCc1cc2c(cc1-3)OCO2", "MEASUREMENT UNIT": "%", "inhibition": -15.4}
{"COMPOUND": "CCCCOc1cc(C(=O)NCCN(CC)CC)c2ccccc2n1", "MEASUREMENT UNIT": "%", "inhibition": -0.9}
{"COMPOUND": "N[C@@H](CCC(=O)N[C@@H](CS)C(=O)NCC(=O)O)C(=O)O", "MEASUREMENT UNIT": "%", "inhibition": 17.6}
{"COMPOUND": "CN(C)CCC(c1ccccc1)c1ccccn1 (stereo not given)", "MEASUREMENT UNIT": "%", "inhibition": 12.1}
{"COMPOUND": "CC(C)NNC(=O)c1ccncc1", "MEASUREMENT UNIT": "%", "inhibition": 12.9}
{"COMPOUND": "CCN(CC)C(=O)N1CCN(C)CC1", "MEASUREMENT UNIT": "%", "inhibition": 14.8}
{"COMPOUND": "CC(NCCC(c1ccccc1)c1ccccc1)c1ccccc1 (stereo not given)", "MEASUREMENT UNIT": "%", "inhibition": 36.8}
{"COMPOUND": "CCOC(=O)c1ccc(N)cc1", "MEASUREMENT UNIT": "%", "inhibition": -9.37}
{"COMPOUND": "COc1c2occc2c(OC)c2c(=O)cc(C)oc12", "MEASUREMENT UNIT": "%", "inhibition": 3.52}
{"COMPOUND": "NC(=O)N/N=C/c1ccc([N+](=O)[O-])o1", "MEASUREMENT UNIT": "%", "inhibition": 21.9}
{"COMPOUND": "NS(=O)(=O)c1cc(C(=O)O)c(NCc2ccco2)cc1Cl", "MEASUREMENT UNIT": "%", "inhibition": 10.9}
{"COMPOUND": "Cc1nc2sccn2c(=O)c1CCN1CCC(=C(c2ccc(F)cc2)c2ccc(F)cc2)CC1", "MEASUREMENT UNIT": "%", "inhibition": -6.39}
{"COMPOUND": "CCCCCCOc1ccccc1C(N)=O", "MEASUREMENT UNIT": "%", "inhibition": 0.61}
{"COMPOUND": "NNc1nncc2ccccc12", "MEASUREMENT UNIT": "%", "inhibition": 24}

###

# EXPERIMENT: GLP1 release stimulators, primary, NCI-H716, NPC library (AID 1117341); note: reference of the scale not given here
# COND: NCI-H716 cells, at 10 µM, stronger effect = higher value

{"COMPOUND STRING": "CCCCC(=O)O[C@]1(C(=O)CO)[C@@H](C)C[C@H]2[C@@H]3CCC4=CC(=O)C=C[C@]4(C)[C@@]3(F)[C@@H](O)C[C@@]21C", "MEASUREMENT UNIT": "%", "GLP1 secretion stimulation": 8.1}
{"COMPOUND STRING": "NC(N)=Nc1nc(CSCC/C(N)=N/S(N)(=O)=O)cs1", "MEASUREMENT UNIT": "%", "GLP1 secretion stimulation": 1.4}
{"COMPOUND STRING": "O=C1NCC2(CCN(CCc3ccccc3)CC2)O1", "MEASUREMENT UNIT": "%", "GLP1 secretion stimulation": 0}
{"COMPOUND STRING": "C#CCN(C)Cc1ccccc1", "MEASUREMENT UNIT": "%", "GLP1 secretion stimulation": 2.3}
{"COMPOUND STRING": "Cc1cccc(C(=O)O)c1O", "MEASUREMENT UNIT": "%", "GLP1 secretion stimulation": 1.9}
{"COMPOUND STRING": "Nc1ccc(S(=O)(=O)Nc2ccc(Cl)nn2)cc1", "MEASUREMENT UNIT": "%", "GLP1 secretion stimulation": -1.5}
{"COMPOUND STRING": "NC(=O)c1ncn([C@@H]2O[C@H](CO)[C@@H](O)[C@H]2O)c1O", "MEASUREMENT UNIT": "%", "GLP1 secretion stimulation": 2.6}
{"COMPOUND STRING": "CCOC(=O)C(C)(C)Oc1ccc(Cl)cc1", "MEASUREMENT UNIT": "%", "GLP1 secretion stimulation": -1.1}
{"COMPOUND STRING": "CC(=O)OCC1=C(C(=O)O)N2C(=O)[C@@H](NC(=O)CSc3ccncc3)[C@H]2SC1", "MEASUREMENT UNIT": "%", "GLP1 secretion stimulation": -1.1}
{"COMPOUND STRING": "O=C1N(c2ccccc2)c2ccccc2C1(Cc1ccncc1)Cc1ccncc1", "MEASUREMENT UNIT": "%", "GLP1 secretion stimulation": 2.6}
{"COMPOUND STRING": "CN(C)c1ccc2nc3ccc(=[N+](C)C)cc-3sc2c1", "MEASUREMENT UNIT": "%", "GLP1 secretion stimulation": 280}

###

# Test system: Neuropilin-2 / VEGF-C interaction (human)
# EXPERIMENT: small molecules blocking Neuropilin-2/VEGF-C interaction – biochemical, microplate binding format, z-score (AID 743281)
# COND: microplate NRP2/VEGF-C binding assay; stronger effect = lower value

{"MOLECULE": "CN(C)CCCSc1ccccc1NC(=O)/C=C/c1ccccc1", "z-score": -0.209}
{"MOLECULE": "CC(=O)OCC(=O)NCCCOc1cccc(CN2CCCCC2)c1", "z-score": -0.306}
{"MOLECULE": "CCOc1cc(N)c(Cl)cc1C(=O)NCC1CN(Cc2ccc(F)cc2)CCO1 (configuration not stated)", "z-score": 0.948}
{"MOLECULE": "COC(=O)C1=C(C)NC(C)=C(C(=O)OCC(C)C)C1c1ccccc1[N+](=O)[O-] (configuration not stated)", "z-score": -0.886}
{"MOLECULE": "CC1(C)S[C@@H]2[C@H](N=CN3CCCCCC3)C(=O)N2[C@H]1C(=O)O", "z-score": -0.418}
{"MOLECULE": "CCN1CCC[C@H]1CNC(=O)c1cc(S(N)(=O)=O)ccc1OC", "z-score": -0.132}
{"MOLECULE": "CC(C)NCC(O)COc1ccc(COCCOC(C)C)cc1 (configuration not stated)", "z-score": -0.164}
{"MOLECULE": "O=C(NCCN1CCOCC1)c1ccc(Cl)cc1", "z-score": -0.561}
{"MOLECULE": "O=C(NCCO[N+](=O)[O-])c1cccnc1", "z-score": -0.101}
{"MOLECULE": "c1cnc(N2CCN(Cc3ccc4c(c3)OCO4)CC2)nc1", "z-score": -0.0568}
{"MOLECULE": "COC1=C(OC)C(=O)C(CCCCCCCCCCO)=C(C)C1=O", "z-score": -0.18}
{"MOLECULE": "O=C1N(c2ccccc2)c2ccccc2C1(Cc1ccncc1)Cc1ccncc1", "z-score": -0.0491}
